B1: library; a variant is named by its letters at N, in order (parent)
chain: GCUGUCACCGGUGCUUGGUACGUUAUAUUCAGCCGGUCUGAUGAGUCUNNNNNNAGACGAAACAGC

variants of: B1; assay: normalized RNA/DNA level without ligand (relative to sTRSVctl = 100) (log10 (% of sTRSVctl)); HEK293T overexpressing SLC46A1; higher = less ribozyme self-cleavage, higher mRNA level; settings: without (6R,S)-folinic acid; ligand present: no
normalized RNA/DNA level without ligand (log10) of 2 or higher: 1. Under 2: 0.

SEQ STRING	LABEL CLASS
GCUGUCACCGGUGCUUGGUACGUUAUAUUCAGCCGGUCUGAUGAGUCUUCAAUCAGACGAAACAGC [UCAAUC]	1
GCUGUCACCGGUGCUUGGUACGUUAUAUUCAGCCGGUCUGAUGAGUCUGUCAUUAGACGAAACAGC [GUCAUU]	1
GCUGUCACCGGUGCUUGGUACGUUAUAUUCAGCCGGUCUGAUGAGUCUGGGGCGAGACGAAACAGC [GGGGCG]	1
GCUGUCACCGGUGCUUGGUACGUUAUAUUCAGCCGGUCUGAUGAGUCUUAGACGAGACGAAACAGC [UAGACG]	0
